B1: E3 ubiquitin-protein ligase NEDD4-like, residues 539 to 589; numbered along this chain, Q96PU5 (parent)
chain: KTSLNPNDLGPLPPGWEERIHLDGRTFYIDHNSKITQWEDPRLQNPAITGP

- Variants of: B1
- assay_summary: abundance fitness (aPCA) (normalised: wild type 0, dead -1); higher = more abundant; growth selection in yeast, the domain comes from the species named
- conditions_used: Homo sapiens
quantity_kind: abundance fitness

> print(dat)
   variant.description  data.value
1                 R19M      -0.233
2                 I48G       0.025
3                 G50M      -0.284
4                 A47D       0.218
5                  N7G       0.005
6                 N32Q       -0.18
7                  N7A       -0.01

These measurements were taken from the Human Domainome abundance scans (Beltran et al. 2025).
